These data points were gathered from patent EP4786492A1.

target: DLL3 endogenously expressed on NCI-H82 cells (UniProt Q9NYJ7); test: FACS on NCI-H82 cells; antibody 0.16 nM
Sequence (Q9NYJ7 27-618): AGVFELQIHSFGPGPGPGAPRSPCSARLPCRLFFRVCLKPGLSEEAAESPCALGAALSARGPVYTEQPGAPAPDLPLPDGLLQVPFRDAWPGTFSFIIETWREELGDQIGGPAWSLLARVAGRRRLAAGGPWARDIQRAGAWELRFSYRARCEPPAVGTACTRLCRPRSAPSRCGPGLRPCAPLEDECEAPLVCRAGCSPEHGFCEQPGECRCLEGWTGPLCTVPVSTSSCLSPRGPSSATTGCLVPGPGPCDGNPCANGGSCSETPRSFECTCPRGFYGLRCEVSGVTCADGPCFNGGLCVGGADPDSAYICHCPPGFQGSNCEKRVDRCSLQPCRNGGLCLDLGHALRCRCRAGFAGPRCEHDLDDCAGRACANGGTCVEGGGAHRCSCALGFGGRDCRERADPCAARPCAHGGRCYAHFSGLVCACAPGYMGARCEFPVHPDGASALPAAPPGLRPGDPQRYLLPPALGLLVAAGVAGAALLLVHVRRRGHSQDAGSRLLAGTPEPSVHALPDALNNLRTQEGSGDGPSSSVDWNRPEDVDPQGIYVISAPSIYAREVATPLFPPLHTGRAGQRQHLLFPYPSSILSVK
Binned MFI; ranges: one (below 400), two (400 to below 500), three (500 or more)

Query block: Which category does the recorded MFI put Hab015VL4VH6a-hFc (scFv, part only; not given: scFv linker and human IgG1 Fc, V domains shown, not shown: another chain or arm of the molecule; a dimerising Fc or GST; small tags and cut ends) VL: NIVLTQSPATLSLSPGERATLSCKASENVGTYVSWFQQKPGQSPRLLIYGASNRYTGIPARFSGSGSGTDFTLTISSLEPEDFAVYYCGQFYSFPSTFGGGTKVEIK VH: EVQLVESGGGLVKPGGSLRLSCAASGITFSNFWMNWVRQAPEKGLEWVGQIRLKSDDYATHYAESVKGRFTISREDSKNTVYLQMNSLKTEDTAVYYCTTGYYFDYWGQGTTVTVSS in?
Result block: two

Query block: Which category does the recorded MFI put Hab006VL1VH4-hFc (scFv, part only; not given: VL-VH linker and human IgG1 Fc, V domains shown, not shown: another chain or arm of the molecule; a dimerising Fc or GST; small tags and cut ends) VL: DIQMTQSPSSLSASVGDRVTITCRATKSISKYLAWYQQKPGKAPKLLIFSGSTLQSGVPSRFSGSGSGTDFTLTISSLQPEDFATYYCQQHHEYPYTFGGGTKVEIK VH: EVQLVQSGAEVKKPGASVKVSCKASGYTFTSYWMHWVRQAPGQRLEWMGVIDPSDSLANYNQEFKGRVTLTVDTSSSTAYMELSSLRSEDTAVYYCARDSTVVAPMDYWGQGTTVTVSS in?
Result block: one

Query block: Which category does the recorded MFI put Hab006VL4VH2-hFc (Fc fusion, part only; not given: Linker and human IgG1 Fc, not shown: a dimerising Fc or GST) chain, part: DIVMTQSPDSLAVSLGERATINCRATKSISKYLAWYQQKPGQTNKLLIFSGSTLQSGVPDRFSGSGSGTDFTLTISSLQAEDVAVYYCQQHHEYPYTFGGGTKVEIKEVQLVQSGAEVKKPGASVKVSCKASGYTFTSYWMHWVRQAPGQRLEWMGVIDPSDSLANYNQEFKGRVTLTVDTSASTAYMELSSLRSEDTAVYYCARDSTVVAPMDYWGQGTTVTVSS in?
Result block: one

Query block: Which category does the recorded MFI put Hab008L1H5-hFc (scFv, part only; not given: VL-VH linker and human IgG1 Fc, V domains shown, not shown: another chain or arm of the molecule; a dimerising Fc or GST; small tags and cut ends) VL: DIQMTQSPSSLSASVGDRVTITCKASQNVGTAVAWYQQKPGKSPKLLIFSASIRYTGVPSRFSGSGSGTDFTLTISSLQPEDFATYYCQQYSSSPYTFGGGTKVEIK VH: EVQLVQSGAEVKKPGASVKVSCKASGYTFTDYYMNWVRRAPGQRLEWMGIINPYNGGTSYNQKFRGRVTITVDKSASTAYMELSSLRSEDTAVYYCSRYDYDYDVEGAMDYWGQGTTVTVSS in?
Result block: one

Query block: Which category does the recorded MFI put Hab009VL1aVH1-hFc (Fc fusion, part only; not given: Linker and human IgG1 Fc, not shown: a dimerising Fc or GST) chain, part: DIVMTQSPLSLPVTPGEPASISCRASQTISDYLHWYLQKPGQSPQLLIKYASQSISGVPDRFSGSGSGSDFTLKISRVEAEDVGVYYCQQGHSFPLTFGQGTKLEIKEVQLVQSGAEVKKPGASVKVSCKASGYTFTSYWMHWVRQAPGQRLEWMGTIYPGNSDTRYNQKFKDRVTITADTSASTAYMELSSLRSEDTAVYYCTRSYDYGDLDYWGQGTTVTVSS in?
Result block: three

Query block: Which category does the recorded MFI put Hab014VL2VH1-hFc (scFv, part only; not given: scFv linker and human IgG1 Fc, V domains shown, not shown: another chain or arm of the molecule; a dimerising Fc or GST; small tags and cut ends) VL: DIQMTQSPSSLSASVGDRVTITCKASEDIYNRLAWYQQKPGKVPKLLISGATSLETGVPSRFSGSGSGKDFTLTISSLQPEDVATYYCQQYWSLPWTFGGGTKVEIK VH: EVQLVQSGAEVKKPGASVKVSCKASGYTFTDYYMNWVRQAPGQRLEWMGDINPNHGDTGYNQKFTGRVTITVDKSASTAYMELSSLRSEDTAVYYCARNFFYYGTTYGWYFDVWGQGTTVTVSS in?
Result block: two

Query block: Which category does the recorded MFI put Hab009VL3aVH1-hFc (scFv, part only; not given: VL-VH linker and human IgG1 Fc, V domains shown, not shown: another chain or arm of the molecule; a dimerising Fc or GST; small tags and cut ends) VL: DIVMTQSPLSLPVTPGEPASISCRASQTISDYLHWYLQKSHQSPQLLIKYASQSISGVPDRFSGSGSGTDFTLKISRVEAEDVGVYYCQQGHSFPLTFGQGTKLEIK VH: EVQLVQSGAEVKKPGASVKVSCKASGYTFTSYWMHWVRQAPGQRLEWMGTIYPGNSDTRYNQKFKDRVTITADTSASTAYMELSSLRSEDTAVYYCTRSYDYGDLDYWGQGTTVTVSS in?
Result block: three

Query block: Which category does the recorded MFI put mab015 scFv-hFc (Fc fusion, part only; not given: linker and human IgG1 Fc, not shown: a dimerising Fc or GST) chain, part: NIVMTQSPKSMSMSVGERVTLSCKASENVGTYVSWFQQKPEQSPKLLIYGASNRYTGVPDRFTGSGSATDFTLTISSVQAEDLADYHCGQFYSFPCTFGGGTKLEIKEVKLEESGGGLVQPGGSMKLSCVASGITFSNFWMNWVRQSPEKGLEWVAQIRLKSDDYATHYAESVKGRFTISRDDSKGSVYLQMNNLRTEDTGIHYCTTGYYFDYWGQGTTLTVSS in?
Result block: three

Query block: Which category does the recorded MFI put Hab008L3H5-hFc (scFv, part only; not given: scFv linker and human IgG1 Fc, V domains shown, not shown: another chain or arm of the molecule; a dimerising Fc or GST; small tags and cut ends) VL: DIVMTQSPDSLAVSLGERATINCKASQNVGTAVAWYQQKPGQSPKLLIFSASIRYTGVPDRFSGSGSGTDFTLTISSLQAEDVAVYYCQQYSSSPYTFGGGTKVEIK VH: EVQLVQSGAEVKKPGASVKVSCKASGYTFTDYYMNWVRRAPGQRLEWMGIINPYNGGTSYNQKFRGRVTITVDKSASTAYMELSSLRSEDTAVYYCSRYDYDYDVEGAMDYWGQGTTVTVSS in?
Result block: one

Query block: Which category does the recorded MFI put Hab015VL5VH1b-hFc (scFv, part only; not given: VL-VH linker and human IgG1 Fc, V domains shown, not shown: another chain or arm of the molecule; a dimerising Fc or GST; small tags and cut ends) VL: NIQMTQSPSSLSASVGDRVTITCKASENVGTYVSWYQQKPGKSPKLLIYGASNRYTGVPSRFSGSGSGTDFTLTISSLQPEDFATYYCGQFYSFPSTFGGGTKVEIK VH: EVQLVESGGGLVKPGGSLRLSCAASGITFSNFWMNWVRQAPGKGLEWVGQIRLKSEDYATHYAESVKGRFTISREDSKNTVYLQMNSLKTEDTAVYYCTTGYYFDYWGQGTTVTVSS in?
Result block: two
